Measured SETFA herbicidal damage score, listed per entry.
# Test system: Setaria faberi
# protocol details: Post-emergence herbicidal activity, glasshouse pot test
# Type: in vivo
# Set-up: key: 0 = no damage to plant, 5 = total damage to plant
# condition: Application post-emergence, rate 1000 g/ha, evaluated after 13 days
# Protocol: Seeds of a variety of test species were sown in standard soil in pots. […] After 13 days, the test was evaluated (5=total damage to plant; 0=no damage to plant). […]
parameter: SETFA herbicidal damage score

# compound, test value
rows = [
    ("COC1=C(OC)C(O)N(c2cc(Br)ccn2)C1=O (centres unmarked) [AK5]", 5),
    ("CC1=C(Cl)C(=O)N(c2ccc(Cl)cn2)C1O (centres unmarked) [AF65]", 5),
    ("COC1=C(C)C(O)N(c2cc(C(F)(F)F)c(C(=O)NC(C)(C)C)cn2)C1=O (centres unmarked) [AI6]", 5),
    ("COC1=C(C)C(O)N(c2ccc([N+](=O)[O-])cn2)C1=O (centres unmarked) [AI29]", 0),
    ("COc1ccc(N2C(=O)C(Cl)=C(C)C2O)nc1 (centres unmarked) [AF56]", 4),
    ("COC1=C(C)C(O)N(c2ccc(C(=O)NC(C)(C)C)nn2)C1=O (centres unmarked) [BI6]", 5),
    ("COC1=C(C)C(O)N(c2cc(C(C)(F)F)c(-c3ccc(F)cc3)nn2)C1=O (centres unmarked) [BI17]", 5),
    ("CC1=C(Cl)C(=O)N(c2cc(F)ccn2)C1O (centres unmarked) [AF39]", 4),
    ("CC(=O)c1ccnc(N2C(=O)C(Cl)=C(C)C2O)c1 (centres unmarked) [AF30]", 3),
    ("CC(C)=C(C)c1cnc(N2C(=O)C(Cl)=C(C)C2O)cc1C(F)(F)F (centres unmarked) [AF2]", 5),
    ("CCOC(=O)c1cnc(N2C(=O)C(Cl)=C(C)C2O)cc1Cl (centres unmarked) [AF101]", 5),
    ("CC1=C(Cl)C(=O)N(c2cc(OC(C)C)ncn2)C1O (centres unmarked) [CF5]", 5),
    ("CCc1cc(N2C(=O)C(Cl)=C(C)C2O)ncc1Br (centres unmarked) [AF99]", 4),
    ("CC1=C(Cl)C(=O)N(c2cc(C(F)(F)F)c(-c3ccc(Cl)cc3)cn2)C1O (centres unmarked) [AF90]", 5),
    ("CC1=C(Cl)C(=O)N(c2ccc(C#N)nn2)C1O (centres unmarked) [BF14]", 3),
    ("CSc1ccc(N2C(=O)C(Cl)=C(C)C2OC(C)=O)nc1 (centres unmarked) [AF19]", 3),
    ("CC1=C(Cl)C(=O)N(c2cc(C(F)(F)F)c(C(=O)OC(C)C)cn2)C1O (centres unmarked) [AF92]", 5),
    ("CC1=C(Cl)C(=O)N(c2ccc(C(F)(F)F)cn2)C1O (centres unmarked) [AF70]", 5),
    ("CC1=C(Cl)C(=O)N(c2cc(C(C)(C)C)c(Cl)nn2)C1O (centres unmarked) [BF1]", 4),
    ("C=C(OCC)c1nnc(N2C(=O)C(OC)=C(C)C2O)cc1C(C)(F)F (centres unmarked) [BI19]", 4),
]

---

Measured ALOMY damage score, application pre-emergence by item
# Test system: Alopecurus myosuroides
# protocol details: Pre-emergence herbicidal activity, glasshouse pot test
# Format: in vivo
# condition: pre-emergence spray, rate 1000 g/ha, evaluated after 13 days, scale 0-5
parameter: ALOMY damage score, application pre-emergence

# compound, test value
rows = [
    ("CC1=C(Cl)C(=O)N(c2cc(C(C)C)c(Cl)nn2)C1O (stereo not shown) [BF15]", 4),
    ("COC1=C(C)C(O)N(c2cc(C(C)(F)F)c(-c3ccc(C)c(F)c3)nn2)C1=O (stereo not shown)", 2),
    ("CCOc1nc(N2C(=O)C(Cl)=C(C)C2O)ncc1C#N (stereo not shown)", 0),
    ("COC1=C(OC)C(O)N(c2cc(C(F)(F)F)ncn2)C1=O (stereo not shown)", 4),
    ("CC1=C(Cl)C(=O)N(c2cc(C)ccn2)C1O (stereo not shown)", 4),
    ("COc1ccc(-c2ccc(N3C(=O)C(Cl)=C(C)C3O)nc2)cc1 (stereo not shown)", 0),
    ("COC1=C(C)C(O)N(c2cc(C(C)(C)C)c(N3CC(F)(F)C3)nn2)C1=O (stereo not shown)", 4),
    ("COC1=C(C)C(O)N(c2cc(C(F)(F)F)c(C(=O)NC(C)(C)C)cn2)C1=O (stereo not shown)", 4),
    ("CCC1=C(Cl)C(=O)N(c2cc(C(F)(F)F)ccn2)C1O (stereo not shown)", 3),
    ("COC1=C(C)C(O)N(c2cc(C(F)(F)F)c(-c3cnc(OC)nc3)cn2)C1=O (stereo not shown)", 2),
    ("COC1=C(C)C(O)N(c2cc(C(F)(F)F)c(-c3cncnc3)cn2)C1=O (stereo not shown)", 3),
    ("COC1=C(C)C(O)N(c2ccc(NC(=O)C(C)(C)C)cn2)C1=O (stereo not shown)", 4),
    ("C=C(OCC)c1nnc(N2C(=O)C(OC)=C(C)C2O)cc1C(C)(F)F (stereo not shown)", 3),
    ("COC1=C(C)C(O)N(c2cc(C)c(Br)cn2)C1=O (stereo not shown)", 2),
    ("COC1=C(C)C(O)N(c2nccc(C(C)(C)C)n2)C1=O (stereo not shown)", 3),
    ("CC1=C(Cl)C(=O)N(c2cc3c(cn2)CCCC3)C1O (stereo not shown)", 2),
    ("COC1=C(C)C(O)N(c2cc(C(C)(F)F)c(C)nn2)C1=O (stereo not shown)", 4),
    ("COC1=C(C)C(O)N(c2cc(C(C)(F)F)c(-c3ccc(F)cc3)nn2)C1=O (stereo not shown)", 4),
    ("CC1=C(Cl)C(=O)N(c2ncc(C#N)c(C(C)(C)C)n2)C1O (stereo not shown)", 3),
    ("CC1=C(Cl)C(=O)N(c2cc(C)c([N+](=O)[O-])cn2)C1O (stereo not shown)", 1),
    ("CC1=C(Cl)C(=O)N(c2cc(C(F)(F)F)cc(Cl)n2)C1O (stereo not shown)", 3),
    ("CC1=C(Cl)C(=O)N(c2ccc(C(C)(C)C#N)cn2)C1O (stereo not shown)", 3),
    ("COC1=C(C)C(O)N(c2cc(C(C)F)ccn2)C1=O (stereo not shown)", 4),
    ("COC1=C(C)C(O)N(c2cc(C(C)(C)F)c(-c3ccc(F)cc3)nn2)C1=O (stereo not shown)", 2),
    ("CCC(C)(C)NC(=O)c1cnc(N2C(=O)C(OC)=C(C)C2O)cc1C (stereo not shown)", 4),
    ("COC1=C(C)C(O)N(c2cc3c(nn2)CCCC3)C1=O (stereo not shown)", 1),
    ("COC1=C(OC)C(O)N(c2cc(Cl)c(Cl)cn2)C1=O (stereo not shown)", 0),
    ("COC1=C(C)C(O)N(c2cc(C(C)(F)F)ncn2)C1=O (stereo not shown)", 3),
]

---

# Lookup of reported ALOMY damage score, application pre-emergence keyed by entry
# Test system: Alopecurus myosuroides
# protocol details: Pre-emergence herbicidal activity, glasshouse pot test
# Assay type: in vivo
# condition: pre-emergence spray, rate 1000 g/ha, evaluated after 13 days, scale 0-5
parameter: ALOMY damage score, application pre-emergence

# molecule, test value
data = [
    ("CC1=C(Cl)C(=O)N(c2cc([S+](C)[O-])ccn2)C1O (stereo not drawn)", 0),
    ("COC1=C(C)C(O)N(c2ccc(C(=O)NC(C)(C)C#N)cn2)C1=O (stereo not drawn)", 4),
    ("CC1=C(Cl)C(=O)N(c2ccc(S(C)(=O)=O)cn2)C1O (stereo not drawn)", 0),
    ("CC1=C(Cl)C(=O)N(c2cc(C(F)F)ccn2)C1O (stereo not drawn)", 3),
    ("COC1=C(C)C(O)N(c2cc(OC(F)(F)F)ccn2)C1=O (stereo not drawn)", 3),
    ("COC1=C(C)C(O)N(c2cc(C(C)(C)C)ncn2)C1=O (stereo not drawn)", 4),
    ("COC1=C(C)C(O)N(c2cc(C(C)(F)F)c(C#N)nn2)C1=O (stereo not drawn)", 4),
    ("COC1=C(C)C(O)N(c2cc(C(C)(F)F)c(Cl)nn2)C1=O (stereo not drawn)", 4),
    ("CC1=C(Cl)C(=O)N(c2cc(C(C)C)c(C(=O)NC(C)(C)C)cn2)C1O (stereo not drawn)", 4),
]

---

# Tested on: Setaria faberi
# protocol details: Post-emergence herbicidal activity, glasshouse pot test
# Assay type: in vivo
# Design: key: 0 = no damage to plant, 5 = total damage to plant
# condition: Application post-emergence, rate 1000 g/ha, evaluated after 13 days

# compound, SETFA herbicidal damage score
measured = [
    ("COC1=C(C)C(O)N(c2cc(C(C)(F)F)c(Cl)nn2)C1=O (stereo not shown) [BI22]", 5),
    ("COc1nnc(N2C(=O)C(Cl)=C(C)C2O)cc1C (stereo not shown) [BF6]", 5),
    ("CC1=C(Cl)C(=O)N(c2cc(C(C)C#N)ncn2)C1O (stereo not shown) [CF18]", 3),
    ("COC1=C(C)C(O)N(c2cc(C(F)(F)F)c(OC)cn2)C1=O (stereo not shown) [AI15]", 5),
]

Origin of values: patent US9963445B2
